system_name: TRPM8 (Homo sapiens, UniProt Q7Z2W7)
Construct: purchased Eurofins (Cerep) item #3316
Sequence (Q7Z2W7 whole entry): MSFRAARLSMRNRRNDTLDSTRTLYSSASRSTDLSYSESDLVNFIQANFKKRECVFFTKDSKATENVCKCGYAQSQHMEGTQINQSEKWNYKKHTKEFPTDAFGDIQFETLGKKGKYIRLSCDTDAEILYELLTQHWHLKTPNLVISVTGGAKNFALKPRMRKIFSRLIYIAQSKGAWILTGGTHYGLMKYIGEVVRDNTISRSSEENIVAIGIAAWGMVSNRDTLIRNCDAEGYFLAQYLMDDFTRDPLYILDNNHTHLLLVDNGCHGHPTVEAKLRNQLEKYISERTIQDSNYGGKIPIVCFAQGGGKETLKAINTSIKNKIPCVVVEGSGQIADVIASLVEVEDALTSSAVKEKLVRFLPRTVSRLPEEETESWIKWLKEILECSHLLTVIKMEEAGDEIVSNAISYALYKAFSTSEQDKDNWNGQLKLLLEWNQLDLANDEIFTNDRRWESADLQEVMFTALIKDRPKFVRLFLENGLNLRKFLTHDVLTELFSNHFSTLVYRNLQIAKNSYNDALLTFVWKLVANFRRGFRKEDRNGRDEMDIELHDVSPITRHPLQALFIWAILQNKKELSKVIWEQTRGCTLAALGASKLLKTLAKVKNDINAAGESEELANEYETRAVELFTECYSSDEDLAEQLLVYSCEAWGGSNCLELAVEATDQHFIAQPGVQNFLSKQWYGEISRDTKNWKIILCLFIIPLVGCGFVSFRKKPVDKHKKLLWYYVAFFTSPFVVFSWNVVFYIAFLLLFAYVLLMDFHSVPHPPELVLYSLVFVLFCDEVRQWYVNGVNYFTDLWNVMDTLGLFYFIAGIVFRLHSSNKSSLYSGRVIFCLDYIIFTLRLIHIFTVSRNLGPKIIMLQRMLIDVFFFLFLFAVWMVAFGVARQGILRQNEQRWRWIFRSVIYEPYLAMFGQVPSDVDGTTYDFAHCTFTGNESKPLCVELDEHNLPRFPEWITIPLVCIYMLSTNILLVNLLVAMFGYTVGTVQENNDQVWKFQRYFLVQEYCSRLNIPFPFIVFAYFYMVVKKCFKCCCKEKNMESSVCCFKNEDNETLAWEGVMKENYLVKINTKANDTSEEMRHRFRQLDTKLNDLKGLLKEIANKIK
assay_name: TRPM8 Human Transient Potential Ion Channel Cell Based Agonist Calcium Flux Assay (Eurofins Cerep item #3316)
condition_set: control activator ligand icilin, read-out: Percent Agonist
assay_metric: Emax

INSERT INTO results (molecule, result) VALUES
  ('CC(C)[C@@H]1CC[C@@H](C)C[C@H]1C(=O)Nc1cnn(CCO)c1', '> 75%'),
  ('CNC(=O)c1cc(OC)ccc1NC(=O)[C@@H]1C[C@H](C)CC[C@H]1C(C)C', '> 75%'),
  ('CC(C)[C@@H]1CC[C@@H](C)C[C@H]1C(=O)NCCC1CC1(F)F (stereo partly drawn)', '> 75%'),
  ('COc1ccc(CNC(=O)[C@@H]2C[C@H](C)CC[C@H]2C(C)C)cc1', '> 75%'),
  ('CC(C)[C@@H]1CC[C@@H](C)C[C@H]1C(=O)Nc1ccc2c(c1)B(O)OC2', '> 50%'),
  ('CCOc1ccc(NC(=O)[C@@H]2C[C@H](C)CC[C@H]2C(C)C)cn1', '> 50%');

----------
Below, each entry is listed with its recorded pEC50.
system_name: TRPM8 (Homo sapiens)
Construct: purchased Eurofins (Cerep) item #3316
assay_name: TRPM8 Human Transient Potential Ion Channel Cell Based Agonist Calcium Flux Assay (Eurofins Cerep item #3316)
condition_set: room temperature
pEC50: −log10 of the molar value.
assay_metric: pEC50

INSERT INTO measurements (structure_smiles, system_name, result) VALUES
  ('CON(C)C(=O)C12CC(NC(=O)[C@@H]3C[C@H](C)CC[C@H]3C(C)C)(C1)C2', 'TRPM8 (Homo sapiens)', '> 6.30'),
  ('CC(C)[C@@H]1CC[C@@H](C)C[C@H]1C(=O)NC1CC2(COC2)C1', 'TRPM8 (Homo sapiens)', '> 5.70'),
  ('CC(C)[C@@H]1CC[C@@H](C)C[C@H]1C(=O)NC1CCS(=O)(=O)CC1', 'TRPM8 (Homo sapiens)', '> 5.00'),
  ('CC(C)[C@@H]1CC[C@@H](C)C[C@H]1C(=O)NC12CC(CO)(C1)C2', 'TRPM8 (Homo sapiens)', '> 6.00'),
  ('CC(C)[C@@H]1CC[C@@H](C)C[C@H]1C(=O)Nc1ccc(OCCN2CCCC2)cc1', 'TRPM8 (Homo sapiens)', '> 6.30'),
  ('CO[C@H]1CC[C@H](NC(=O)[C@@H]2C[C@H](C)CC[C@H]2C(C)C)CC1', 'TRPM8 (Homo sapiens)', '> 6.30'),
  ('COC(=O)C12CC(NC(=O)c3cc(C)ccc3C(C)C)(C1)C2', 'TRPM8 (Homo sapiens)', '> 5.30');

----------
Below, each entry is listed with its recorded Emax.
system_name: TRPM8 (Homo sapiens)
Construct: purchased Eurofins (Cerep) item #3316
assay_name: TRPM8 Human Transient Potential Ion Channel Cell Based Agonist Calcium Flux Assay (Eurofins Cerep item #3316)
condition_set: control activator ligand icilin, read-out: Percent Agonist
assay_metric: Emax

INSERT INTO measurements (molecule, assay_metric, result) VALUES
  ('CC(C)[C@@H]1CC[C@@H](C)C[C@H]1C(=O)N[C@H]1CCC(F)(F)C1 [Compound 94]', 'Emax', '> 75%'),
  ('CC(C)[C@@H]1CC[C@@H](C)C[C@H]1C(=O)NCCC#N [Compound 99]', 'Emax', '> 75%'),
  ('CC(C)[C@@H]1CC[C@@H](C)C[C@H]1C(=O)NC12CC(NC(=O)CO)(C1)C2 [Compound 47]', 'Emax', '> 100%'),
  ('COCCOCCOc1ccc(NC(=O)[C@@H]2C[C@H](C)CC[C@H]2C(C)C)cc1 [Compound 5]', 'Emax', '> 75%'),
  ('COC(=O)c1cc(NC(=O)[C@@H]2C[C@H](C)CC[C@H]2C(C)C)ccn1 [Compound 72]', 'Emax', '> 75%'),
  ('CC(C)[C@@H]1CC[C@@H](C)C[C@H]1C(=O)Nc1cccc(C2(O)COC2)c1 [Compound 23]', 'Emax', '> 75%'),
  ('CC(C)[C@@H]1CC[C@@H](C)C[C@H]1C(=O)NC1CN(CCO)C1 [Compound 28]', 'Emax', '> 75%'),
  ('CC(C)[C@@H]1CC[C@@H](C)C[C@H]1C(=O)Nc1ccc(C2(O)COC2)cc1 [Compound 21]', 'Emax', '> 75%'),
  ('COc1ccc(NC(=O)[C@@H]2C[C@H](C)CC[C@H]2C(C)C)c(F)n1 [Compound 81]', 'Emax', '> 100%'),
  ('CC(C)[C@@H]1CC[C@@H](C)C[C@H]1C(=O)NCC1(C#N)CC1 [Compound 93]', 'Emax', '> 75%'),
  ('CC(C)[C@@H]1CC[C@@H](C)C[C@H]1C(=O)Nc1ccc(CCO)cc1 [Compound 17]', 'Emax', '> 75%'),
  ('CC(C)[C@@H]1CC[C@@H](C)C[C@H]1C(=O)NCC1COC1 [Compound 56]', 'Emax', '> 75%'),
  ('CC(C)[C@@H]1CC[C@@H](C)C[C@H]1C(=O)Nc1ccc(B2OC(C)(C)C(C)(C)O2)cn1 [Compound 79]', 'Emax', '> 75%');

Measured values drawn from patent US20240360075A1 for this set.
